# Tested on: NCI/ADR-Res
# assay notes: NCI DTP 60 cell line screen, SRB
# run conditions: Homo sapiens, NCI/ADR-RES, 48 h
Can you tell me GI50 for the items I'm about to list?
// units = µM; emit number, no label

The compound listed as O=C1/C(=C/C(Cl)=C/c2ccc([N+](=O)[O-])cc2)SC(=S)N1/N=C\C(Cl)=C\c1ccc([N+](=O)[O-])cc1 shows GI50 equal to 6.55

Note to self: GI50 recorded for O=C1/C(=C/C(Cl)=C/c2ccc([N+](=O)[O-])cc2)SC(=S)N1c1ccc(O)cc1 was 2.17

Reported GI50 of O=C1NC(=S)S/C1=C\C(Cl)=C\c1ccc([N+](=O)[O-])cc1 : 5.71

The compound O=C(O)CCN1C(=O)/C(=C/C(Cl)=C/c2ccc([N+](=O)[O-])cc2)SC1=S showed GI50 equal to 0.407

Source: paper PMC8161026
